Data provenance is paper PMC10641233.

# target_under_test: the molecule itself
# assay_explanation: cross-linking; 10 μM construct, BS3 amine-reactive crosslinker, 20 mM sodium phosphate, 0.2 mM EDTA (pH 8.0), SDS-PAGE with integration of band intensities and LC-MS/MS of excised bands; dimer to monomers; KD are lower bounds
pKd: −log10 of the molar value.
Some proteins, each annotated with its measured pKd.

C-terminal domain (CTD) of DNAJB6, WT sequence (residues 186–242 plus a starting Met) (domain or fragment, starting Met added before residue 186; numbers count on: full-length DNAJB6; also called WT CTD) MGNFKSISTSTKMVNGRKITTKRIVENGQERVEVEEDGQLKSLTINGKEQLLRLDNK; ≤ 4.52

Input: Bench note: what pKd did CTD STA (CTD with S190A + S192A + T193A + S194A + T195A in β1) (domain or fragment, starting Met added before residue 186; numbers count on: full-length DNAJB6; also called S/T-A-substituted variant) MGNFKAIAAAAKMVNGRKITTKRIVENGQERVEVEEDGQLKSLTINGKEQLLRLDNK show?
Output: ≤ 3.22
